- Test system: ADP induced aggregation of blood platelets (rat platelet rich plasma)
- measurement-description: inhibition of ADP induced platelet aggregation in vitro (rat platelet rich plasma, change in optical density; Born)
- Type: cell-based
- recorded-conditions: 10 min; rat platelet rich plasma; 0.125 to 0.25 mg/ml of ADP; incubated 10 minutes; read-out: IC50 ADP (concentration at which ADP induced platelet aggregation is inhibited by 50%)
pIC50: −log10 of the molar value.
Classification field: fulfilled = pIC50 at or over 2; not fulfilled = pIC50 under 2.

Example entries and their recorded answers appear below.
[[record]]
chemical_structure = "CN(C)CCCSc1ccc(Cl)nn1"
group = "fulfilled"

[[record]]
chemical_structure = "CC(C)N(CCSc1ccc(Cl)nn1)C(C)C"
group = "fulfilled"

[[record]]
chemical_structure = "CCN(CC)CCCSc1ccc(Cl)nn1"
group = "fulfilled"

[[record]]
chemical_structure = "Clc1ccc(SCCN2CCCCCC2)nn1"
group = "fulfilled"


Can Clc1ccc(SCCN2CCCCC2)nn1 be said to have pIC50 at or above 2?
fulfilled

Can c1cc(SCCN2CCOCC2)nnc1SCCN1CCOCC1 be said to have pIC50 at or above 2?
not fulfilled
